Sourced from patent US20250276073A1

biological target: T1, Recombinant human His-tagged TfR1 (a.a. 89-760) (ACRO Biosystems, CD1-H5243) (human, UniProt P02786 89-760); experiment: SPR (Biacore), TfR1 captured/coupled on NTA chip, peptide as analyte
T1 construct: range 89-760; Bought protein; Captured and amine-coupled on an NTA chip; also called human TfR1; transferrin receptor 1; not shown: His tag (printed 'Hiss-tagged')
T1 sequence (P02786 89-760 limits assumed): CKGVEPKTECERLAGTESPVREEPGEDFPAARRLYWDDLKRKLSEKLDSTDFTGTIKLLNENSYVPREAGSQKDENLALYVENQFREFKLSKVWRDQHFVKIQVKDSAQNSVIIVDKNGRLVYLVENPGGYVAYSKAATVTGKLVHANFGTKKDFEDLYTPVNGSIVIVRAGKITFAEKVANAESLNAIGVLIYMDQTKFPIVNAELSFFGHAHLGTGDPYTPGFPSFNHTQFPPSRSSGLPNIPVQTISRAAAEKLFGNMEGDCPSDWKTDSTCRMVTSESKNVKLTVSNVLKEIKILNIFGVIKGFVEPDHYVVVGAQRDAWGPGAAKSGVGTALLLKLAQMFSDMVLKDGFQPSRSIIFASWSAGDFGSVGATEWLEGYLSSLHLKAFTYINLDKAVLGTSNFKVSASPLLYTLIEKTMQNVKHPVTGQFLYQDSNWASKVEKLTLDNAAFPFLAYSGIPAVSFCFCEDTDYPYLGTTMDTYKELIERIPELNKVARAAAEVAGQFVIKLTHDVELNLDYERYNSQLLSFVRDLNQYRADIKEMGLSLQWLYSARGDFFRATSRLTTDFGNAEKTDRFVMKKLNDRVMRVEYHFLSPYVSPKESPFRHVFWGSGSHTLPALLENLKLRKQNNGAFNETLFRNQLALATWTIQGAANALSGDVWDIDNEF
pKd: −log10 of the molar value. Starred links: 1 amine or outer side, 2 acyl side, 3 side chain; linkers in the order of their positions; H or OH if unused. Positions of bridges follow the written chain, without caps; N, C: chain ends. Non-standard residues stand in square brackets, D forms with d. No end group written: not given here. TATB = O=C(C[*:1])N1CN(C(=O)C[*:2])CN(C(=O)C[*:3])C1; Hyp = O=C(O)[C@@H]1C[C@@H](O)CN1; Tle = CC(C)(C)[C@H](N)C(=O)O
PARAMETER: pKd

{"columns": ["BINDER", "MEASUREMENT"],
 "data": [
  ["Ac-CP[Hyp]DAYEGC[Tle]SYCEPW-NH2 (linker 1-9-13 via TATB; SMILES CC(=O)N[C@H]1CSCC(=O)N2CN3CN(C2)C(=O)CSC[C@@H](C(=O)N[C@@H](CCC(=O)O)C(=O)N2CCC[C@H]2C(=O)N[C@@H](Cc2c[nH]c4ccccc24)C(N)=O)NC(=O)[C@H](Cc2ccc(O)cc2)NC(=O)[C@H](CO)NC(=O)[C@H](C(C)(C)C)NC(=O)[C@H](CSCC3=O)NC(=O)CNC(=O)[C@H](CCC(=O)O)NC(=O)[C@H](Cc2ccc(O)cc2)NC(=O)[C@H](C)NC(=O)[C@H](CC(=O)O)NC(=O)[C@@H]2C[C@@H](O)CN2C(=O)[C@@H]2CCCN2C1=O, Bicyclic peptide) [BCY23221]", 6.92],
  ["CPXDAYLGCXSYCEPX (CP[HyP]DAYLGC[tBuGly]SYCEP[DOPA]: HyP at 3, tBuGly at 10, DOPA at 16; N-terminal acetyl; C-terminal CONH2; Cys 1, 9, 13 bonded to TATB scaffold, Bicyclic peptide) [BCY23208]", 8.22],
  ["CPXDAYLGCXSYCEXW (CP[HyP]DAYLGC[tBuGly]SYCE[HyP]W: HyP at 3 and 15, tBuGly at 10; N-terminal acetyl; C-terminal CONH2; Cys 1, 9, 13 bonded to TATB scaffold, Bicyclic peptide) [BCY23204]", 8.05],
  ["CP[Hyp]DAYQGC[Tle]SYCEPW-NH2 (linker 1-9-13 via TATB; not fully specified (N-terminus); printed as CP[HyP]DAYQGC[tBuGly]SYCEPW, Bicyclic peptide) [BCY23223]", 7.30],
  ["CPXDAYLGCXSXCEPW (CP[HyP]DAYLGC[tBuGly]S[DOPA]CEPW: HyP at 3, tBuGly at 10, DOPA at 12; N-terminal acetyl; C-terminal CONH2; Cys 1, 9, 13 bonded to TATB scaffold, Bicyclic peptide) [BCY23200]", 8.02],
  ["CPXDAYLGCXSYCXPW (CP[HyP]DAYLGC[tBuGly]SYC[Gla]PW: HyP at 3, tBuGly at 10, Gla at 14; N-terminal acetyl; C-terminal CONH2; Cys 1, 9, 13 bonded to TATB scaffold, Bicyclic peptide) [BCY23231]", 7.60],
  ["CPXDAYLGCXSXCEPW (CP[HyP]DAYLGC[tBuGly]S[hTyr]CEPW: HyP at 3, tBuGly at 10, hTyr at 12; N-terminal acetyl; C-terminal CONH2; Cys 1, 9, 13 bonded to TATB scaffold, Bicyclic peptide) [BCY23203]", 6.55],
  ["CPXDAYLGCXSYCEPX (CP[HyP]DAYLGC[tBuGly]SYCEP[pCaPhe]: HyP at 3, tBuGly at 10, pCaPhe at 16; N-terminal acetyl; C-terminal CONH2; Cys 1, 9, 13 bonded to TATB scaffold, Bicyclic peptide) [BCY23209]", 8.25],
  ["CPXDAYLGCXSYCEPX (CP[HyP]DAYLGC[tBuGly]SYCEP[pCoPhe]: HyP at 3, tBuGly at 10, pCoPhe at 16; N-terminal acetyl; C-terminal CONH2; Cys 1, 9, 13 bonded to TATB scaffold, Bicyclic peptide) [BCY23210]", 8.07],
  ["CPXDAYLGCXSYCDPW (CP[HyP]DAYLGC[tBuGly]SYCDPW: HyP at 3, tBuGly at 10; N-terminal acetyl; C-terminal CONH2; Cys 1, 9, 13 bonded to TATB scaffold, Bicyclic peptide) [BCY23230]", 7.82],
  ["CPXDAXLGCXSYCEPW (CP[HyP]DA[DOPA]LGC[tBuGly]SYCEPW: HyP at 3, DOPA at 6, tBuGly at 10; N-terminal acetyl; C-terminal CONH2; Cys 1, 9, 13 bonded to TATB scaffold, Bicyclic peptide) [BCY23185]", 7.92],
  ["Ac-CP[Hyp]DAYSGC[Tle]SYCEPW-NH2 (linker 1-9-13 via TATB; SMILES CC(=O)N[C@H]1CSCC(=O)N2CN3CN(C2)C(=O)CSC[C@@H](C(=O)N[C@@H](CCC(=O)O)C(=O)N2CCC[C@H]2C(=O)N[C@@H](Cc2c[nH]c4ccccc24)C(N)=O)NC(=O)[C@H](Cc2ccc(O)cc2)NC(=O)[C@H](CO)NC(=O)[C@H](C(C)(C)C)NC(=O)[C@H](CSCC3=O)NC(=O)CNC(=O)[C@H](CO)NC(=O)[C@H](Cc2ccc(O)cc2)NC(=O)[C@H](C)NC(=O)[C@H](CC(=O)O)NC(=O)[C@@H]2C[C@@H](O)CN2C(=O)[C@@H]2CCCN2C1=O, Bicyclic peptide) [BCY23218]", 7.26],
  ["Ac-CP[Hyp]DAYNGC[Tle]SYCEPW-NH2 (linker 1-9-13 via TATB; SMILES CC(=O)N[C@H]1CSCC(=O)N2CN3CN(C2)C(=O)CSC[C@@H](C(=O)N[C@@H](CCC(=O)O)C(=O)N2CCC[C@H]2C(=O)N[C@@H](Cc2c[nH]c4ccccc24)C(N)=O)NC(=O)[C@H](Cc2ccc(O)cc2)NC(=O)[C@H](CO)NC(=O)[C@H](C(C)(C)C)NC(=O)[C@H](CSCC3=O)NC(=O)CNC(=O)[C@H](CC(N)=O)NC(=O)[C@H](Cc2ccc(O)cc2)NC(=O)[C@H](C)NC(=O)[C@H](CC(=O)O)NC(=O)[C@@H]2C[C@@H](O)CN2C(=O)[C@@H]2CCCN2C1=O, Bicyclic peptide) [BCY23222]", 7.24],
  ["CPXDAYLGCXSXCEPW (CP[HyP]DAYLGC[tBuGly]S[pCaPhe]CEPW: HyP at 3, tBuGly at 10, pCaPhe at 12; N-terminal acetyl; C-terminal CONH2; Cys 1, 9, 13 bonded to TATB scaffold, Bicyclic peptide) [BCY23201]", 7.77],
  ["CPXDAYLGCXSYCEPW (CP[Cis-HyP]DAYLGC[tBuGly]SYCEPW: Cis-HyP at 3, tBuGly at 10; N-terminal acetyl; C-terminal CONH2; Cys 1, 9, 13 bonded to TATB scaffold, Bicyclic peptide) [BCY23184]", 7.89],
  ["Ac-CP[Hyp]EAYLGC[Tle]SYCEPW-NH2 (linker 1-9-13 via TATB; SMILES CC(=O)N[C@H]1CSCC(=O)N2CN3CN(C2)C(=O)CSC[C@@H](C(=O)N[C@@H](CCC(=O)O)C(=O)N2CCC[C@H]2C(=O)N[C@@H](Cc2c[nH]c4ccccc24)C(N)=O)NC(=O)[C@H](Cc2ccc(O)cc2)NC(=O)[C@H](CO)NC(=O)[C@H](C(C)(C)C)NC(=O)[C@H](CSCC3=O)NC(=O)CNC(=O)[C@H](CC(C)C)NC(=O)[C@H](Cc2ccc(O)cc2)NC(=O)[C@H](C)NC(=O)[C@H](CCC(=O)O)NC(=O)[C@@H]2C[C@@H](O)CN2C(=O)[C@@H]2CCCN2C1=O, Bicyclic peptide) [BCY23216]", 6.80],
  ["CXXDAYLGCXSYCEPW (not fully specified; C[HyP][HyP]DAYLGC[tBuGly]SYCEPW: HyP at 2 and 3, tBuGly at 10; N-terminal acetyl; C-terminal CONH2; Cys 1, 9, 13 bonded to TATB scaffold, Bicyclic peptide) [BCY23180]", 7.30],
  ["CPXDAYLGCXXYCEPW (CP[HyP]DAYLGC[tBuGly][HSer]YCEPW: HyP at 3, tBuGly at 10, HSer at 11; N-terminal acetyl; C-terminal CONH2; Cys 1, 9, 13 bonded to TATB scaffold, Bicyclic peptide) [BCY23224]", 5.94]
]}
